Biological target: UniProt P36888
Sequence (P36888 whole entry): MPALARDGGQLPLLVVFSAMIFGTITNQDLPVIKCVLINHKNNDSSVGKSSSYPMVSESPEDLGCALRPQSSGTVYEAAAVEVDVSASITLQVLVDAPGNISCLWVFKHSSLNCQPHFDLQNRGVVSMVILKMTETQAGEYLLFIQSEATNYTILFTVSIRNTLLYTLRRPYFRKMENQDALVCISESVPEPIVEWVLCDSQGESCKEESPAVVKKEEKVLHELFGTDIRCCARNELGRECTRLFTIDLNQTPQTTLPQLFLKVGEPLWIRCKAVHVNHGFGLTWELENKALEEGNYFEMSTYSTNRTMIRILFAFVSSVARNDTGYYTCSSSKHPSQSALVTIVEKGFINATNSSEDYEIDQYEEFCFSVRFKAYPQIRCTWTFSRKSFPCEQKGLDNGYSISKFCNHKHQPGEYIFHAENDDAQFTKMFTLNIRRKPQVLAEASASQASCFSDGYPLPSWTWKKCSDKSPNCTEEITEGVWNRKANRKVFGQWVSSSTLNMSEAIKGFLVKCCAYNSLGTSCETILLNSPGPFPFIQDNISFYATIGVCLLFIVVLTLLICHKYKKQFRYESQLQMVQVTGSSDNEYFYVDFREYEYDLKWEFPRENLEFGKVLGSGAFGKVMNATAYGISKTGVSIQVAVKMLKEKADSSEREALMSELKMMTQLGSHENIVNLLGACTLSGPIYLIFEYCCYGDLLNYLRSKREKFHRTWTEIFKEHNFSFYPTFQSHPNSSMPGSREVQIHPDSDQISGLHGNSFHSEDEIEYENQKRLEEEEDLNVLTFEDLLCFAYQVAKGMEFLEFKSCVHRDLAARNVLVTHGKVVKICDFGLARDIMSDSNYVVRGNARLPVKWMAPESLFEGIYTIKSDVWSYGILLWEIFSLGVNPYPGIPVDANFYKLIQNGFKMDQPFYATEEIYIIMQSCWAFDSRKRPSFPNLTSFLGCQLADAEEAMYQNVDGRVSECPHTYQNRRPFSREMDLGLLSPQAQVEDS
Assay: Inhibition of recombinant human N-terminal GST-tagged FLT3 (564 to end residues) expressed in sf21 cells using biotin labelled Ahx-GGEEEEYFELVKKKK peptide as substrate preincubated with enzyme for 15 mins followed by substrate addition and further incubated for 45 mins in presence of 10 uM of ATP by TR-FRET assay
MEASUREMENT_NAME: pIC50
In textbook form, pIC50 equals minus log to base ten of the concentration in mol/L.

Given the molecule "Cn1cc(-c2ccc3nc(Nc4cc(CN5CCN(C(=O)CC(F)(F)F)CC5)ccn4)[nH]c3c2)cn1" , what is its reported pIC50? 7.96

Given the molecule "CNc1cc(-c2ccc3nc(Nc4cc(CN5CCN(C(=O)CC(F)(F)F)CC5)ccn4)[nH]c3c2)ncn1" , what is its reported pIC50? 8.22

Given the molecule "C[C@H](c1ccnc(Nc2nc3ccc(-c4cc(OCC5CC5)ncn4)cc3[nH]2)c1)N1CCN(C(=O)CC(F)(F)F)CC1" , what is its reported pIC50? 7.89
